B1: ZNF511 (parent)
chain: HLYPADFRFDKPKKSRSPASAEAP

# Variants of: B1
# experimentSummary: protein stability index of a GFP-peptide fusion (GPS, HEK-293T) (PSI 1-6); higher = more stable;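 further: lentivirally expressed fusions sorted by FACS into six bins by GFP to DsRed ratio, PSI derived from sequencing read proportions per bin multiplied by bin number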
# appliedConditions: c terminus: a fixed tail appended
assayMetric: protein stability index
Just the number, please, no unit attached.

Use these answered entries as a reference point.
{"polymerSequence": "HLYPADFRFDKPKKSRSPASCEAP", "protein stability index": 3.1}
{"polymerSequence": "HLYPADFRFDKPKKSRIPASAEAP", "protein stability index": 2.03}
{"polymerSequence": "HLYPADFGFDKPKKSRSPASAEAP", "protein stability index": 2.53}
{"polymerSequence": "HLYPADFRFDKPKKSRSPASAEAI", "protein stability index": 2.61}
{"polymerSequence": "HLYPADFRFDKPKKSRSPASAEAF", "protein stability index": 2.94}

What the record says about HLYPADHRFDKPKKSRSPASAEAP : protein stability index is 3.98

What the record says about HLYPADFRFEKPKKSRSPASAEAP : protein stability index is 3.08

What the record says about HLYPFDFRFDKPKKSRSPASAEAP : protein stability index is 2.63
